The reported numbers originate from patent US20240101542A1.

- target.system: ERAP2 (Homo sapiens (Human), UniProt Q6P179)
- Sequence (Q6P179 whole entry): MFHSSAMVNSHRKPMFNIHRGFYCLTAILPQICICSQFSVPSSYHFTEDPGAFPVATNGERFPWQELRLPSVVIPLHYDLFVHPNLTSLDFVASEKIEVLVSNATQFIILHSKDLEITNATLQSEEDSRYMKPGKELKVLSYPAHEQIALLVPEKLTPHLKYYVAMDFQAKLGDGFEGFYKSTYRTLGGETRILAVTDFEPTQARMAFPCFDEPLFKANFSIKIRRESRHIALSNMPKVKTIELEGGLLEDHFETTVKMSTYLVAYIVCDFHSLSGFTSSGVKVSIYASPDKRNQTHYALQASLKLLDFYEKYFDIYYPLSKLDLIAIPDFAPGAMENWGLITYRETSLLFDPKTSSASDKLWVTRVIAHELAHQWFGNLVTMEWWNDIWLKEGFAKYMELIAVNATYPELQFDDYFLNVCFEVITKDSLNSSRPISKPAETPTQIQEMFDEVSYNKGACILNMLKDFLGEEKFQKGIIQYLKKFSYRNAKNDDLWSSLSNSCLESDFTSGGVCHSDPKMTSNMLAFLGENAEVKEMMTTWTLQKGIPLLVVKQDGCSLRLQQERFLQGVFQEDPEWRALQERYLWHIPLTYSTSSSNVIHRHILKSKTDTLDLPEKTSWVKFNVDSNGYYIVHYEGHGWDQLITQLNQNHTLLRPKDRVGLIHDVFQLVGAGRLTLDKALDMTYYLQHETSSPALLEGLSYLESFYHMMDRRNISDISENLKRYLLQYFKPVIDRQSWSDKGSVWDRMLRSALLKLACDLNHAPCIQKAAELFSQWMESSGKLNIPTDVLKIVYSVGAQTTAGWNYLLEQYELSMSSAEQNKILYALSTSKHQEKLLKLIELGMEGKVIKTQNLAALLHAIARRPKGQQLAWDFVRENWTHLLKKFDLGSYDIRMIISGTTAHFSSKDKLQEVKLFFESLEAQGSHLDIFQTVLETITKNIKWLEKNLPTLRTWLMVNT
- procedure.details: In vitro ERAP activity assay, ERAP2 with R-AMC substrate
- Format: biochemical
- measurement.setup: R-AMC as substrate; read-out: IC50 on ERAP2 using R-AMC as substrate
The entries below are paired with their reported IC50.

# example entries with known answers
molecule	target.system	IC50
O=C(NO)[C@H](Cc1ccc(O)c(F)c1)n1cc(CNS(=O)(=O)c2ccc(-c3ccccn3)s2)nn1 [Compound 44]	ERAP2 (Homo sapiens (Human), UniProt Q6P179)	< 500 nM
O=C(NO)[C@H](Cc1ccc(O)cc1)n1cc(CNS(=O)(=O)c2ccc(-c3cccnc3)s2)nn1 [Compound 29]	ERAP2 (Homo sapiens (Human), UniProt Q6P179)	< 500 nM

Look up IC50: N#Cc1ccc(C[C@@H](C(=O)NO)n2cc(CNS(=O)(=O)c3ccc(-c4ccccc4)s3)nn2)cc1 [Compound 60] < 500 nM

What does the record list as IC50 for O=C(NO)[C@H](Cc1c[nH]c2ccccc12)n1cc(CNS(=O)(=O)c2ccc(-c3ccccc3)s2)nn1 [Compound 4] ? > 5000 nM

* * *

// values below are pIC50; system is ERAP1 (Homo sapiens (Human))
Sequence (Q9NZ08 whole entry): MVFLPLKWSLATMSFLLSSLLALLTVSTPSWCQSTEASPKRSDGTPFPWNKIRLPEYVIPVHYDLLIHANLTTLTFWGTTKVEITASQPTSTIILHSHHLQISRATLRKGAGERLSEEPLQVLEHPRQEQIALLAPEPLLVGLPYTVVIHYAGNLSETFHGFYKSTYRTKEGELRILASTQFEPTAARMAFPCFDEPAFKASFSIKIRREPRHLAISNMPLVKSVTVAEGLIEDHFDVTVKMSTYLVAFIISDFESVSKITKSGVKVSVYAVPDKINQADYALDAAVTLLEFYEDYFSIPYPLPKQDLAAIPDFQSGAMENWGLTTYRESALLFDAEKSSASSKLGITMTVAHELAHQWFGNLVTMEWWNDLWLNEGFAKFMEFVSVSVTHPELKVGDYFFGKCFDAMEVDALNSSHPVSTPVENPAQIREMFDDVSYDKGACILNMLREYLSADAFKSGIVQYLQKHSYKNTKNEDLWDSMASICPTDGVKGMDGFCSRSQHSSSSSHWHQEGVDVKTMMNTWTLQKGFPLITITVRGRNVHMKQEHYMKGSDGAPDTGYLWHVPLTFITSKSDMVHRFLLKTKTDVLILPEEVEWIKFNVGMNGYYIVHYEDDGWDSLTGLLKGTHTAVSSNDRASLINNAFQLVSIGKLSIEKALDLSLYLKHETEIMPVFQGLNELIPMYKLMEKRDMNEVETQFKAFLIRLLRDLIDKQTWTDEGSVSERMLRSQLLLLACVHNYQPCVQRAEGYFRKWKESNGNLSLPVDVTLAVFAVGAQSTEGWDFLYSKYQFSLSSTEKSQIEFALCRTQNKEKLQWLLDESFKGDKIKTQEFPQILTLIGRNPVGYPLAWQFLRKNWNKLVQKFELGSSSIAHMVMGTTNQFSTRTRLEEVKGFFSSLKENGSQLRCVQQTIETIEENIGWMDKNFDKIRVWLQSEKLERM
pIC50: −log10 of the molar value.

Guide cases for pIC50, answers given:
compound	pIC50
NCc1ccc(-c2ccc(S(=O)(=O)NCc3cn([C@@H](Cc4ccc(O)cc4)C(=O)NO)nn3)s2)cc1 [Compound 12]	< 5.30
COc1ccc(C[C@@H](C(=O)NO)n2cc(C3CCCCN3S(=O)(=O)c3ccc(-c4ccccc4)s3)nn2)cc1 (stereo partly shown) [Compound 58]	> 5.30
COc1ccc(C[C@@H](C(=O)NO)n2cc(CNS(=O)(=O)c3ccc(-c4ccccn4)s3)nn2)cc1OC [Compound 41]	> 5.30
COc1ccc(C[C@@H](C(=O)NO)n2cc(CN(C3CC3)S(=O)(=O)c3ccc(-c4ccccn4)s3)nn2)cc1 [Compound 57]	< 5.30
O=C(NO)[C@H](Cc1ccc(O)cc1)n1cc(CNS(=O)(=O)c2cccs2)nn1 [Compound 15]	< 5.30
O=C(NO)[C@@H](Cc1c[nH]c2ccccc12)n1cc(CNS(=O)(=O)c2ccc(-c3ccccc3)s2)nn1 [Compound 2]	< 5.30
O=C(C[C@@H](Cc1ccc2ccccc2c1)n1cc(CNS(=O)(=O)c2ccc(-c3ccccc3)s2)nn1)NO [Compound 6]	< 5.30
COc1ccc(C[C@@H](C(=O)NO)n2cc(CNS(=O)(=O)c3cnc(-c4ccccc4)s3)nn2)cc1 [Compound 56]	> 5.30

Could you now consider this next compound?
Name the recorded pIC50 for COc1ccc(C[C@@H](C(=O)NO)n2cc(CNS(=O)(=O)c3ccc(-c4ccccn4)s3)nn2)cc1F [Compound 52] . < 5.30

* * *

Hi! I'm sharing some pIC50 results obtained with ERAP2 (Homo sapiens (Human), UniProt Q6P179).
pIC50: −log10 of the molar value.

Study these solved cases before continuing.
O=C(NO)[C@@H](Cc1c[nH]c2ccccc12)n1cc(CNS(=O)(=O)c2ccc(-c3ccccc3)s2)nn1 < 5.30
O=C(NO)[C@H](Cc1ccc(OC(F)(F)F)cc1)n1cc(CNS(=O)(=O)c2ccc(-c3ccccc3)s2)nn1 > 6.30
CNC(=O)c1cccc(-c2ccc(S(=O)(=O)NCc3cn([C@@H](Cc4ccc(OC)cc4)C(=O)NO)nn3)s2)c1 > 6.30

Now for another entry.
What measured pIC50 goes with `O=C(NO)[C@H](Cc1ccc(OC(F)(F)F)cc1)n1cc(CNS(=O)(=O)c2ccc(-c3ccccn3)s2)nn1` ? > 6.30
